Every entry's value here was drawn from ChEMBL document CHEMBL1139446.

molecular target: Nitric oxide synthase 1 (Mus musculus, UniProt Q9Z0J4)
Sequence (Q9Z0J4 whole entry): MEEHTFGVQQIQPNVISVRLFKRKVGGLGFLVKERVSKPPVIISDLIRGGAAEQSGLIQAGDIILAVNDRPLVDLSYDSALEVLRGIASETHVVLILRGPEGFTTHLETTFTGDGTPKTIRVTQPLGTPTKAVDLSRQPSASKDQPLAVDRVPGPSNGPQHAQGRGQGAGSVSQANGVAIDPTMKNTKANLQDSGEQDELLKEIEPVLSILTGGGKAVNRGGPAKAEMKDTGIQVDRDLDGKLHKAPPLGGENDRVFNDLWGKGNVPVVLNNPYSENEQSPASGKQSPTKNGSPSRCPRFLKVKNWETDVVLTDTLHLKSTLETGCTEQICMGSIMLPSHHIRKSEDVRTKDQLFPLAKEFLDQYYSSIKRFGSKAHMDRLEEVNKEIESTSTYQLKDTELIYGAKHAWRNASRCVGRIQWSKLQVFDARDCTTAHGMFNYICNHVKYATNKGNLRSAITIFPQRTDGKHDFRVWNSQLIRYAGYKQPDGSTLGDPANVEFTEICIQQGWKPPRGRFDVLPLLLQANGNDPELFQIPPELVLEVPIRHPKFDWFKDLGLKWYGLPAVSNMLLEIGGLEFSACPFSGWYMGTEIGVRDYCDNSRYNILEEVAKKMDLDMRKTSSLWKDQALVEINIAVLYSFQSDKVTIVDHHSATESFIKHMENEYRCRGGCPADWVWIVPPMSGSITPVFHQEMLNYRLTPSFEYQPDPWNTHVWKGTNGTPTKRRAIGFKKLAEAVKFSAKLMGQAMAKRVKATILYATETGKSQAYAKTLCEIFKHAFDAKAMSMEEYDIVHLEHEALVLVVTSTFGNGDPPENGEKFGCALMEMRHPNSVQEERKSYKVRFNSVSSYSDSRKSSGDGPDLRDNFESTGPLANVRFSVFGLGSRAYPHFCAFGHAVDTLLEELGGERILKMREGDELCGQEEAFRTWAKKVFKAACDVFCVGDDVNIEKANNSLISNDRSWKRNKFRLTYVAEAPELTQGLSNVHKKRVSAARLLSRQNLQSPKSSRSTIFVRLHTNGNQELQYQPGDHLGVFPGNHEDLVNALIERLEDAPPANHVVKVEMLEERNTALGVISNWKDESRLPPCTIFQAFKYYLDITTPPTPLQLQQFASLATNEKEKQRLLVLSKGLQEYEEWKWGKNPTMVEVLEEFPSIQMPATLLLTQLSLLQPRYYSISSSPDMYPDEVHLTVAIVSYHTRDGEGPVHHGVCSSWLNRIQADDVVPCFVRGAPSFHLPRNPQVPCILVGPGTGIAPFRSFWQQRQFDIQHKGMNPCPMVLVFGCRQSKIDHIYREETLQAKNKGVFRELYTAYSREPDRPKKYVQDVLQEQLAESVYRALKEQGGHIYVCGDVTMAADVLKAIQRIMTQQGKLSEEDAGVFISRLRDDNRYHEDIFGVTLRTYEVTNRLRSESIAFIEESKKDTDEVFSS
Rule: measured IC50 below 1000 nM gets t; anything equal to or greater than 1000 nM gets f.

[
  {
    "COMPOUND": "NC1=NCC(CBr)O1 (stereo not drawn)",
    "TGT": "Nitric oxide synthase 1 (Mus musculus, UniProt Q9Z0J4)",
    "LABEL": "t"
  },
  {
    "COMPOUND": "CC1COC(N)=N1 (stereo not drawn)",
    "TGT": "Nitric oxide synthase 1 (Mus musculus, UniProt Q9Z0J4)",
    "LABEL": "f"
  },
  {
    "COMPOUND": "CCC1CN=C(N)O1 (stereo not drawn)",
    "TGT": "Nitric oxide synthase 1 (Mus musculus, UniProt Q9Z0J4)",
    "LABEL": "f"
  },
  {
    "COMPOUND": "CCC[C@@H]1N=C(N)O[C@H]1CCC",
    "TGT": "Nitric oxide synthase 1 (Mus musculus, UniProt Q9Z0J4)",
    "LABEL": "f"
  },
  {
    "COMPOUND": "CCC[C@@H]1N=C(N)O[C@@H]1CCC",
    "TGT": "Nitric oxide synthase 1 (Mus musculus, UniProt Q9Z0J4)",
    "LABEL": "f"
  },
  {
    "COMPOUND": "CC1CN=C(N)O1 (stereo not drawn)",
    "TGT": "Nitric oxide synthase 1 (Mus musculus, UniProt Q9Z0J4)",
    "LABEL": "f"
  },
  {
    "COMPOUND": "C[C@@H]1N=C(N)O[C@@H]1C",
    "TGT": "Nitric oxide synthase 1 (Mus musculus, UniProt Q9Z0J4)",
    "LABEL": "f"
  },
  {
    "COMPOUND": "N=C(NCCC[C@H](N)C(=O)O)N[N+](=O)[O-]",
    "TGT": "Nitric oxide synthase 1 (Mus musculus, UniProt Q9Z0J4)",
    "LABEL": "t"
  },
  {
    "COMPOUND": "CC[C@@H]1OC(N)=N[C@H]1C",
    "TGT": "Nitric oxide synthase 1 (Mus musculus, UniProt Q9Z0J4)",
    "LABEL": "f"
  },
  {
    "COMPOUND": "C[C@H]1CC(=N)N[C@@H]2[C@H](Cl)[C@@H]21",
    "TGT": "Nitric oxide synthase 1 (Mus musculus, UniProt Q9Z0J4)",
    "LABEL": "t"
  }
]

Lookup: Please check: IC50 for CC[C@@H]1N=C(N)O[C@H]1CC , strictly under 1000 nM or not?
Found: f

Lookup: Please check: IC50 for CCCCC[C@@H]1N=C(N)O[C@@H]1C , strictly under 1000 nM or not?
Found: f

Lookup: Please check: IC50 for CC[C@@H]1N=C(N)O[C@@H]1C , strictly under 1000 nM or not?
Found: t

* * *

species on record: Mus musculus; assay: Selectivity ratio of IC50 of nNOS to IC50 of iNOS
# label = satisfied if Selectivity >= 5 else not satisfied

Past entries and their recorded results:
[
  {
    "COMPOUND": "CCC[C@@H]1N=C(N)O[C@@H]1C",
    "LABEL": "satisfied"
  },
  {
    "COMPOUND": "CCCCC[C@@H]1N=C(N)O[C@@H]1C",
    "LABEL": "satisfied"
  }
]

Lookup: Assess whether reported Selectivity for CC[C@@H]1N=C(N)O[C@H]1C sits at 5 or higher.
Found: satisfied

Lookup: Assess whether reported Selectivity for CC[C@@H]1N=C(N)O[C@H]1CC sits at 5 or higher.
Found: satisfied

* * *

species on record: Mus musculus; experiment: Selectivity ratio of IC50 of nNOS to IC50 of iNOS
Rule: measured Selectivity below 6 gets True; anything equal to or greater than 6 gets False.

Past entries and their recorded results:
[
  {
    "MOLECULE": "CC[C@@H]1N=C(N)O[C@@H]1C",
    "LABEL": "True"
  },
  {
    "MOLECULE": "C[C@@H]1N=C(N)O[C@@H]1C",
    "LABEL": "False"
  },
  {
    "MOLECULE": "CC[C@H]1OC(N)=N[C@H]1C",
    "LABEL": "True"
  },
  {
    "MOLECULE": "N=C(NCCC[C@H](N)C(=O)O)N[N+](=O)[O-]",
    "LABEL": "True"
  },
  {
    "MOLECULE": "NC1=NCC(CBr)O1 (stereo unspecified)",
    "LABEL": "True"
  },
  {
    "MOLECULE": "C[C@H]1CC(N)=N[C@@H]2[C@H](Cl)[C@@H]21",
    "LABEL": "True"
  }
]

Lookup: Please check: Selectivity for CC[C@@H]1OC(N)=N[C@H]1C , strictly under 6 or not?
Found: False

Lookup: Please check: Selectivity for CCCCC[C@@H]1N=C(N)O[C@H]1C , strictly under 6 or not?
Found: True

Lookup: Please check: Selectivity for CCC[C@@H]1N=C(N)O[C@H]1C , strictly under 6 or not?
Found: True

Lookup: Please check: Selectivity for CC1COC(N)=N1 (stereo unspecified) , strictly under 6 or not?
Found: False

Lookup: Please check: Selectivity for CCC1CN=C(N)O1 (stereo unspecified) , strictly under 6 or not?
Found: False

Lookup: Please check: Selectivity for CCC[C@@H]1N=C(N)O[C@@H]1CCC , strictly under 6 or not?
Found: False

Lookup: Please check: Selectivity for NC1=NCCO1 , strictly under 6 or not?
Found: True

Lookup: Please check: Selectivity for CC1CN=C(N)O1 (stereo unspecified) , strictly under 6 or not?
Found: False

Lookup: Please check: Selectivity for CCC1COC(N)=N1 (stereo unspecified) , strictly under 6 or not?
Found: True

Lookup: Please check: Selectivity for CCC[C@@H]1N=C(N)O[C@H]1CCC , strictly under 6 or not?
Found: False
